- Test system: OCI-LY10 B lymphoma cells
- Method notes: OCI-LY10 orthotopic murine CNS lymphoma model
- Assay type: in vivo
- Run conditions: 2.5 mg/kg intraperitoneal daily for 4 days; control 35
Please provide measured Median Survival (Day) CNS Lymphoma (OCI-LY10) for the entries that follow.
Record the value in days, omitting the unit from your answer.

### Prompt Report Median Survival (Day) CNS Lymphoma (OCI-LY10) for CCN1C(=O)N[C@H]2[C@@H]3NC(=O)c4cc(Cl)c(Cl)n4[C@@H]3C[C@]21O [DCEAA, dichloroethylagelastatin A] please.
### Response 60

### Prompt CN1C(=O)N[C@H]2[C@@H]3NC(=O)c4ccc(Br)n4[C@@H]3C[C@]21O [AA, agelastatin A, reference compound] , same question.
### Response 48.5

### Prompt CN1C(=O)N[C@H]2[C@@H]3NC(=O)c4ccc(Cl)n4[C@@H]3C[C@]21O [CAA, chloroagelastatin A] , same question.
### Response 49

### Prompt CCN1C(=O)N[C@H]2[C@@H]3NC(=O)c4ccc(Cl)n4[C@@H]3C[C@]21O [CEAA, chloroethylagelastatin A] , same question.
### Response 57

----------
- Test system: DU145 prostate cancer cells
- Method notes: Cytotoxicity, MTT method, DU145
- Run conditions: Homo sapiens, DU-145, 24 h, read-out: Cytotoxicity (IC50, μM) DU145
Metric: IC50 (µM)
Record the value in µM, omitting the unit from your answer.

### Prompt Report IC50 for `CCN1C(=O)N[C@H]2[C@@H]3NC(=O)c4ccc(Cl)n4[C@@H]3C[C@]21O` please.
### Response 2.6

### Prompt `CCN1C(=O)N[C@H]2[C@@H]3NC(=O)c4cc(Cl)c(Cl)n4[C@@H]3C[C@]21O` , same question.
### Response 1.4

----------
- Method notes: CNS pharmacokinetic analysis in rats (microdialysis, CE-UV)
- Run conditions: male, Sprague-Dawley, rat, in vivo, iv, 2.5 mg/kg
Please provide measured Kp for the entries that follow.
Lab note: record just the number, no unit beside it.

### Prompt Report Kp for `CCN1C(=O)N[C@H]2[C@@H]3NC(=O)c4ccc(Cl)n4[C@@H]3C[C@]21O` please.
### Response 0.27

### Prompt `CCN1C(=O)N[C@H]2[C@@H]3NC(=O)c4cc(Cl)c(Cl)n4[C@@H]3C[C@]21O` , same question.
### Response 0.307

### Prompt `CN1C(=O)N[C@H]2[C@@H]3NC(=O)c4ccc(Cl)n4[C@@H]3C[C@]21O` , same question.
### Response 0.16

----------
- Test system: T47D
- Method notes: Cell proliferation assay T47D (Example 6)
- Assay type: cell-based
- Run conditions: cells counted on the sixth day
Metric: IC50 (nM)
Record the value in nM, omitting the unit from your answer.

### Prompt Report IC50 for CN1C(=O)N[C@H]2[C@@H]3NC(=O)c4ccc(Br)n4[C@@H]3C[C@]21O [AA, agelastatin A, reference compound] please.
### Response 55.1

----------
- Tested on: DU145 prostate cancer cells
- Method notes: Cytotoxicity, MTT method, DU145
- Run conditions: Homo sapiens, DU-145, 24 h, read-out: Cytotoxicity (IC50, μM) DU145
Please provide measured IC50 for the entries that follow.

### Prompt Report IC50 for `CCN1C(=O)N[C@H]2[C@@H]3NC(=O)c4cccn4[C@@H]3C[C@]21O` please.
### Response > 10 µM

### Prompt `CN1C(=O)N[C@H]2[C@@H]3NC(=O)c4ccc(-c5ccc(N)cc5)n4[C@@H]3C[C@]21O` , same question.
### Response > 10 µM

### Prompt `COc1ccc(CN2C(=O)N[C@H]3[C@@H]4NC(=O)c5ccc(Br)n5[C@@H]4C[C@]32O)cc1` , same question.
### Response > 10 µM
